Cited source for all entries: patent US12357603B2

log10(EC50) by entry:
System: ZR-75-1 cells
Test: Proliferation assay ZR-75-1 (Alamar Blue, 144 h)
Format: cell-based
Details: Homo sapiens, ZR-75-1, 144 h, arithmetic mean, read-out: ZR75-1 proliferation assay, EC50 [M] (arithmetic mean)
# values: log10(EC50), units M

Reference set (4 entries):
CC(C)c1ccccc1S(=O)(=O)NC(=O)c1cc2ccc(N(C)C)cc2o1: -5.83
CCOc1ccccc1S(=O)(=O)NC(=O)c1cc2ccc(N(C)C)c(F)c2o1: -5.25
COc1cc(S(=O)(=O)NC(=O)c2cc3ccc(N(C)C)cc3o2)cc(Cn2cccn2)c1OC: -5.59
CN(C)c1ccc2cc(C(=O)NS(=O)(=O)c3ccc([N+](=O)[O-])c4cccnc34)oc2c1: -6.46

Then this compound:
query: For `CCOc1ccc(C(F)(F)F)cc1S(=O)(=O)NC(=O)c1cc2ccc(N(C)C)cc2o1` , what is its reported log10(EC50)?
result: -7.09

* * *

A collection of compounds and their measured EC50
Tested on: ZR-75-1 cells
Assay: Proliferation assay ZR-75-1 (Alamar Blue, 144 h)
Type: cell-based
Settings: Homo sapiens, ZR-75-1, 144 h, arithmetic mean, read-out: ZR75-1 proliferation assay, EC50 [M] (arithmetic mean)
Quick reminder: number only, in M, skip the unit.

Cc1cnc2c(S(=O)(=O)NC(=O)c3cc4ccc(N(C)C)cc4o3)cccc2c1: 4.18e-07

query: Returns the measured EC50 for the input compound. Input: `CC(C)Nc1ncc(Br)cc1S(=O)(=O)NC(=O)c1cc2ccc(N(C)C)cc2o1`
result: 7.2e-06

query: // lookup EC50 for `COc1ccc(Cl)cc1S(=O)(=O)NC(=O)c1cc2ccc(N(C)C)cc2o1`
result: 1.74e-07

query: Quick check: EC50 of `Cc1cccnc1CS(=O)(=O)NC(=O)c1cc2ccc(N(C)C)cc2o1` ?
result: 3.72e-06

query: Entry `Cc1ccc(S(=O)(=O)NC(=O)c2cc3ccc(N(C)C)cc3o2)c(N)n1` has what EC50?
result: 2.93e-06

query: Fill in: EC50 of `CCOc1ccc(C(C)C)cc1S(=O)(=O)NC(=O)c1cc2ccc(N(C)C)cc2o1` is ___
result: 6.17e-07

* * *

Target: Recombinant human His-tagged Kat6a protein (amino acids 194-810) (Homo sapiens (Human))
Sequence (Q92794 194-810): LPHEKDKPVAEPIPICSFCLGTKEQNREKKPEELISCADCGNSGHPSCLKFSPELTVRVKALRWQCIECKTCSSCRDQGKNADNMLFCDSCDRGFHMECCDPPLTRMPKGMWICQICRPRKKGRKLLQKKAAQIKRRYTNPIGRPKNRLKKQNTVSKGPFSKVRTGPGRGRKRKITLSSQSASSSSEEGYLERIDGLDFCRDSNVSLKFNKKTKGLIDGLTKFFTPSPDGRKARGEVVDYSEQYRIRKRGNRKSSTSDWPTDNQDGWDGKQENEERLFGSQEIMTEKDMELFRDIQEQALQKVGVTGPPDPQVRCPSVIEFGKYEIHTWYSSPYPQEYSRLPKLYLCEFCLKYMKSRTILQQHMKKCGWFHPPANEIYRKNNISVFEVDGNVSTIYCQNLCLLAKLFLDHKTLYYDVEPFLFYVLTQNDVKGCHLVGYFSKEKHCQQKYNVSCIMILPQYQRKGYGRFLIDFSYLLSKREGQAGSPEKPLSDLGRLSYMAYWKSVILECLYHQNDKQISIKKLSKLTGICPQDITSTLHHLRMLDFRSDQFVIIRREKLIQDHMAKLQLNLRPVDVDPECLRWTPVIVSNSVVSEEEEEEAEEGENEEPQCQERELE
Experiment: Kat6a activity assay (TR-FRET, acetylation of biotinylated Histone-H4-derived peptide)
Details: 60 mins at 22° C., read-out: KAT6A-DPF/HAT domain IC50 [mol/l] (arithmetic mean)
Readings of log10 IC50 for the listed compounds
Note: values are log10 of IC50 expressed in µM.

Solved entries (count: 3):
CC(C)Oc1ccccc1S(=O)(=O)NC(=O)c1cc2c(F)cc(N(C)C)cc2o1: -2.15
CCN(CC)c1ccc2cc(C(=O)NS(=O)(=O)c3ccccc3-c3ccccc3)oc2c1: -0.01
CN(C)c1ccc2cc(C(=O)NS(=O)(=O)c3ccccc3OCCOCCOCCOCCNc3ccc([N+](=O)[O-])c4nonc34)oc2c1: -0.89

query: What value of measured log10 IC50 is listed for CC(C)Oc1ccccc1S(=O)(=O)NC(=O)c1cc2ccc(N(C)C)cc2o1 [Example 224] ?
result: -1.23

query: What value of log10 IC50 has been reported for the following compound? `CN(C)c1ccc2cc(C(=O)NS(=O)(=O)c3cc(Br)cnc3Cl)oc2c1`
result: -0.10

query: Fill blank: measured log10 IC50 of the compound `CN(C)c1ccc2cc(C(=O)NS(=O)(=O)c3ccccc3OC3COC3)oc2c1` is ____.
result: -0.63

query: # log10 IC50 lookup, item `CN(C)c1ccc2cc(C(=O)NS(=O)(=O)c3ccc(Br)cc3OC(F)(F)F)oc2c1`
result: -1.28

query: What value of measured log10 IC50 is listed for `CN(C)c1ccc2cc(C(=O)NS(=O)(=O)c3ccccc3OCCN)oc2c1` ?
result: 0.31
